Target system: human glucagon receptor (human, UniProt P47871 26-477)
Protocol notes: cell-based or functional assay
Starred links: 1 amine or outer side, 2 acyl side, 3 side chain; linkers in the order of their positions; H or OH if unused. Non-standard residues stand in square brackets, D forms with d. No end group written: not given here. *: point of attachment. NMe2F‑APPA = N-methyl-2-amino-5-(2-fluorophenyl)pentanoic acid, CN([C@@H](CCCc1ccccc1F)C(=O)[*:2])[*:1]; Bip(2'-Et-4'-OMe) = CCc1cc(OC)ccc1-c1ccc(C[C@H](N)C(=O)O)cc1; Leu(5,5,5,5',5',5'-F6) = N[C@@H](CC(C(F)(F)F)C(F)(F)F)C(=O)O; Nva(5-(3,5-Me2Ph)) = Cc1cc(C)cc(CCC[C@H](N)C(=O)O)c1; 2F‑APPA = 2-amino-5-(2-fluorophenyl)pentanoic acid; αMePhe(2-F) = C[C@](N)(Cc1ccccc1F)C(=O)O; NMeBip(OMe) = N-methylated Bip(OMe); hhPhe = N[C@@H](CCCc1ccccc1)C(=O)O; NMeD = CN[C@@H](CC(=O)O)C(=O)O; aThr = C[C@H](O)[C@H](N)C(=O)O; NMeAPPA = not defined here; Ac5c = NC1(C(=O)O)CCCC1; CNB = not defined here; Aib = CC(C)(N)C(=O)O; Moc = COC(=O)*
Observable: inhibition of cAMP production, 1 nM (pmol/ml/µg prt)

binder="H[Aib][CNB]G[aThr][αMePhe(2-F)][aThr]S[NMeD][NMeBip(OMe)][NMeAPPA] (reading uncertain) [Seq. ID. No. 154: H-Aib-(CNB)-G-T(allo)-(α-Me-2F-Phe)-T(allo)-S-(NMe)D-((NMe)Bip(OMe))-((NMe)(APPA))]" meas_value=9
binder="H[Aib]QG[aThr][αMePhe(2-F)][aThr]SD[Bip(2'-Et-4'-OMe)][hhPhe] (also: reduced (CH2) bond between 10 and 11) [Seq. ID. No. 189: H-Aib-QG-T(allo)-(α-Me-2F-Phe)-T(allo)-SD-Bip(OMe)-(CH2)-(APPA)]" meas_value=3
binder="Ac-H[Aib]QG[aThr][αMePhe(2-F)][aThr]SD[Bip(2'-Et-4'-OMe)][2F‑APPA] (also: reduced (CH2) bonds between 9-10 and 10-11) [Seq. ID. No. 199: CH3CO-H-Aib-QG-T(allo)-(α-Me-2F-Phe)-T(allo)-SD-(CH2)-Bip(OMe)-(CH2)-(2F-APPA)]" meas_value=4
binder="H[Aib][CNB]G[aThr][αMePhe(2-F)][aThr]SD[Bip(2'-Et-4'-OMe)][NMe2F‑APPA] (reading uncertain) [Seq. ID. No. 132: H-Aib-(CNB)-G-T(allo)-(α-Me-2F-Phe)-T(allo)-SD-Bip(OMe)-((NMe)(2F-APPA))]" meas_value=15

P: H[Ac5c]QGTFTSD[Bip(2'-Et-4'-OMe)][Nva(5-(3,5-Me2Ph))] [Seq. ID. No. 26: H-(APP)-QGTFTSD-Bip(OMe)-(ADMP)]
Q: Moc-H[Aib][CNB]GT[αMePhe(2-F)]TSD[Bip(2'-Et-4'-OMe)][hhPhe] (reading uncertain) [Seq. ID. No. 206: CH3OCO-H-Aib-(CNB)-GT-(α-Me-2F-Phe)-TSD-Bip(OMe)-(APPA)]
**Query** Between P and Q , whose recorded inhibition of cAMP production, 1 nM is greater? Lab note: record the label of whichever item you select.
**Result** P

I: H[Aib][Leu(5,5,5,5',5',5'-F6)]G[aThr][αMePhe(2-F)][aThr]SD[Bip(2'-Et-4'-OMe)][hhPhe] [Seq. ID. No. 228: H-Aib-(Hfl)-G-T(allo)-(α-Me-2F-Phe)-T(allo)-SD-Bip(OMe)-(APPA)]
II: Moc-H[Aib]QG[aThr][αMePhe(2-F)][aThr]S[NMeD][NMeBip(OMe)][NMeAPPA] (reading uncertain)
III: H[Aib][CNB]GT[αMePhe(2-F)][aThr]SD[Bip(2'-Et-4'-OMe)][2F‑APPA] (reading uncertain) [Seq. ID. No. 120: H-Aib-(CNB)-GT-(α-Me-2F-Phe)-T(allo)-SD-Bip(OMe)-(2F-APPA)]
**Query** Put the items in order so that reported inhibition of cAMP production, 1 nM rises from first to last. Reply format: the labels, ordered as requested.
**Result** III, II, I
(III: 0 pmol/ml/µg prt, II: 10 pmol/ml/µg prt, I: 19 pmol/ml/µg prt)
